system: Glycine max (GLXMA); format: in vivo; details: pre-emergence, 320 g/ha, crop plant compatibility, in comparison to untreated controls
Assignment: determine reported Pre-emergence action against GLXMA in % for the given compounds.
Answers are plain numbers, in %.

- CCOC(=O)C[S+]([O-])c1nn(-c2ccccn2)c(-c2cncc(F)c2)c1Cl (stereo not shown) [Example I-150]: 0
- CCOC(=O)COc1nn(-c2ncccc2OC)c(-c2ccc(F)nc2)c1I [Example I-386]: 0
- O=C(CSc1nn(-c2ccccn2)c(-c2cncc(F)c2)c1Br)NS(=O)(=O)c1ccccc1 [Example I-200]: 20
- COc1cccnc1-n1nc(OCC(=O)O)c(Br)c1-c1ccc(F)nc1 [Example I-363]: 0
- C[C@@H](Oc1nn(-c2ccnc(Cl)c2)c(-c2ccc(F)nc2)c1Br)C(=O)O [III-30]: 20
- O=C(COc1nn(-c2ccnc(Cl)c2)c(-c2ccc(F)nc2)c1Br)NS(=O)(=O)CC(F)(F)F [III-20]: 20

Now for a further compound.
Requested read-out Pre-emergence action against GLXMA in %, target or system Glycine max (GLXMA), entry CCOC(=O)C1CCN(C(=O)COc2nn(-c3ccccn3)c(-c3ccc(F)nc3)c2Br)CC1 [Example I-112] 20
